fluorescence slope listing for selected compounds.
- measured-on: Voltage-gated potassium channel subunit beta-2 (Rattus norvegicus) (UniProt P62483)
- Sequence (P62483 whole entry, looked up): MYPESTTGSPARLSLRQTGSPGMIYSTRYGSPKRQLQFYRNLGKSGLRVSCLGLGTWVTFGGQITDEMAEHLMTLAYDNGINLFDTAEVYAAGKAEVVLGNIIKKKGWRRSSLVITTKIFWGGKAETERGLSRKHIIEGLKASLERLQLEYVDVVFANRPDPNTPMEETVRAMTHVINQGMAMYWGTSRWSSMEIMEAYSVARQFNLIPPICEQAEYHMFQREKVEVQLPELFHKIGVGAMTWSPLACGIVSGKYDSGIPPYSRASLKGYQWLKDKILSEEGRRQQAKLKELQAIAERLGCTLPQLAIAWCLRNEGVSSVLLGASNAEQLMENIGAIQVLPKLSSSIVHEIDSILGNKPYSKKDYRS
- measurement-notes: inhibitors of rat Kvbeta2 reductase activity – biochemical, NADPH fluorescence, primary screen (AID 622);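 note: slope of raw intensity against log time taken from 70 to 1610 s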
- experimental-setup: recombinant KvBeta, 4-cyanobenzaldehyde reduction, at 10 µM, stronger effect = higher value
Just the number, please, no unit attached.

The recorded fluorescence slope for COC(=O)Cn1c(C)nc2c(sc3nc(C)cc(C)c32)c1=O is -0.603

The recorded fluorescence slope for CC(=O)N[C@@H](CS)C(=O)O is -0.543

The recorded fluorescence slope for CC(=O)c1cccc(NC(=O)c2ccc(NS(C)(=O)=O)cc2)c1 is -0.444

The recorded fluorescence slope for COCn1c(COc2ccccc2)nc2ccccc21 is -0.248

The recorded fluorescence slope for O=S(=O)(NCCSc1ccccc1)c1cccs1 is -0.208

The recorded fluorescence slope for COc1cc(Cn2c(C(=O)O)cc3sccc32)cc(OC)c1OC is -0.562

The recorded fluorescence slope for CCOC(=O)COc1ccc(S(=O)(=O)N2CCc3ccccc3C2)cc1 is -0.555

The recorded fluorescence slope for Cc1ccccc1Cn1nc(C)c(NC(=O)c2noc3c2CCCC3)c1C is -0.571

The recorded fluorescence slope for CCOC(=O)c1cc(-c2ccc(Cl)s2)nc2c1c(C)nn2C is -0.494

The recorded fluorescence slope for CCc1nc(C)c(-c2ccccc2)c(=O)[nH]1 is -0.567

Others:
The recorded fluorescence slope for Cc1ccc(NC(=O)N2CCC(c3nc4c(nnn4Cc4cccc(Cl)c4)c(=O)[nH]3)CC2)cc1 is -0.569

The recorded fluorescence slope for CSc1nnc2n(CCc3ccccc3)c(=O)c3c4c(sc3n12)CCCC4 is -0.476
